Every entry's value here was drawn from the RepoRT retention time repository (doi:10.1039/c4mb00346b).

- METHOD: HILIC, Merck SeQuant ZIC-pHILIC, 150 × 2.1 mm, 5 µm, 0.1 mL/min, estimated dead time 3.3 min; A: acetonitrile; B: water + 10 mM ammonium carbonate; gradient (min/%B) 0/20 30/80
- TEST_CONTEXT: stereoisomer not certain

COMPOUND	LC retention time (min)
NCCS(=O)(=O)O	12.1
Nc1nc2c(ncn2C2OC(COP(=O)(O)OP(=O)(O)OC3OC(CO)C(O)C(O)C3O)C(O)C2O)c(=O)[nH]1 (centres undefined)	15.5
O=C(O)CCC(=O)C(=O)O [2-Oxoglutarate]	12.9
O=C(O)C(O)C(O)C(O)C(O)COP(=O)(O)O (centres undefined) [6-Phosphogluconate]	15
CC(=O)NC(CCC(=O)O)C(=O)O (centres undefined) [N-Acetyl-glutamate]	11.6
C[N+](C)(C)CC(=O)[O-]	8.6
CC(=O)NC(CC(=O)O)C(=O)O (centres undefined) [N-Acetyl-aspartate]	12.5
CCC(=O)OC(CC(=O)[O-])C[N+](C)(C)C (centres undefined)	7.2
O=c1ccn(C2OC(COP(=O)(O)OP(=O)(O)O)C(O)C2O)c(=O)[nH]1 (centres undefined)	14
NC(=O)C1=CN(C2OC(COP(=O)(O)OP(=O)(O)OCC3OC(n4cnc5c(N)ncnc54)C(O)C3O)C(O)C2O)C=CC1 (centres undefined)	11.1
NC(=O)CCC(N)C(=O)O (centres undefined)	12.2
Nc1nc2c(ncn2C2OC(COP(=O)(O)OP(=O)(O)O)C(O)C2O)c(=O)[nH]1 (centres undefined)	15.5
O=S(=O)(O)Oc1c[nH]c2ccccc12 [Indoxyl-sulfate]	4.9
CC(=O)OC(CC(=O)[O-])C[N+](C)(C)C (centres undefined)	8.5
CC(=O)NCCCCC([NH3+])C(=O)[O-] (centres undefined)	10.5
C[NH+](C)C(Cc1cnc[nH]1)C(=O)[O-] (centres undefined)	9.7
O=c1ccn(C2OC(COP(=O)(O)OP(=O)(O)OP(=O)(O)O)C(O)C2O)c(=O)[nH]1 (centres undefined)	15.1
C[S+](CCC(N)C(=O)[O-])CC1OC(n2cnc3c(N)ncnc32)C(O)C1O (centres undefined)	14.2
O=P(O)(O)OCC1OC(O)C(O)C(O)C1O (centres undefined) [Glucose-6-phosphate]	14.2
